- Measured Target: T1, EBOV Mayinga strain cleaved GP ectodomain (Ebola virus, Mayinga strain, UniProt Q05320 33-650)
- T1 chain: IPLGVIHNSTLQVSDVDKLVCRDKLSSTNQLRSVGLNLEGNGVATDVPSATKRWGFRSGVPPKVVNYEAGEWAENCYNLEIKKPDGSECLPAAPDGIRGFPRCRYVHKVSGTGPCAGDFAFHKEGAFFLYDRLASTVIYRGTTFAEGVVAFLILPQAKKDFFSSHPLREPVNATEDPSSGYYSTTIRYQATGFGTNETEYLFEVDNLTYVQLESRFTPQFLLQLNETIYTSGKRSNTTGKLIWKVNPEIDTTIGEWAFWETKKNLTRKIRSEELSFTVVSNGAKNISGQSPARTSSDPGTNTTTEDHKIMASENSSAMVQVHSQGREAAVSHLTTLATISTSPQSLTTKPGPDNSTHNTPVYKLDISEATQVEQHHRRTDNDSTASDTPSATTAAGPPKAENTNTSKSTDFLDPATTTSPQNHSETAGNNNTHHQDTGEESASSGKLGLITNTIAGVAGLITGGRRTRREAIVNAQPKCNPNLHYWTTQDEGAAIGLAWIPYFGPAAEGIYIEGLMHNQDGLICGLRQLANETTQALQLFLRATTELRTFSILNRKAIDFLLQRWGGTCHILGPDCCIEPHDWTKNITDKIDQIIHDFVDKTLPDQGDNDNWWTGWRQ
- Experiment Notes: ELISA
Recorded EC50 for the following binders

Binder	EC50
MR144 (antibody, V domains shown) V domain 1: QVQLQESGPGLVKPSETLSLTCTVSGDSISRYYWSWIRQPPGKGLEWIGYLYYSGSTDYNPSLKSRVTISVDTSKNQFSLNLTSVTAADTAVYYCARGSSRGIGVVSHWFDPWGQGT V domain 2: SYVLTQPPSVSVAPGQTARITCGGSNMGYKSVQWYQQRPGQAPVLVVYDDTDRPSGIPERFSGSNSGATATLTISSVEAGDEADYYCQVWDSSSDHHVVFGGGTQVTVL	> 1000 µg/mL
MR208 (antibody, V domains shown) VH: QVQLQESGPGLVKPSETLSLTCSVSGDSVSSGDYYWSWLRQPPGKGLEWIGYIYYSGATNYNPSLKSRVTISLDTSKNQFSLKLTSVTAADTAVYYCARERAGFLEWLFFEDWGQGT VL: DIQMTQSPSSLSASVGDRVTIFCRASQSIGTYLSWYQQKPGKAPKVLIYATSNLQSGVPSRFSGSGSGTEFTLTISSLQPEDFATYYCQQSRTFGQGTKVDMK	> 1000 µg/mL
MR72 human monoclonal antibody (antibody, V domains shown) VH: QLQLQESGPGLVKPSETLSLTCTVSGDSINNTNYYWAWIRQPPGKGLEYIGSIYYSGSTYYNPSLKSRVTMSVDASKNQFSLRLSSVTAADTAVYYCATHPTLGAFVLLWFGANFDHWGQGTLVTVSS VL: QAVVTQPPSVSGAPGQRVTISCTGSSSNIGANYDVHWYQQLPGTAPKLLMYSNTNRPSGVPDRFSGSKSGTSASLAITGLQAEDEADYYCQSYDNSLNSWVFGGGTQLTVL	< 0.1 µg/mL
MR191 human monoclonal antibody (antibody, V domains shown) VH: QLQLQESGPGLVKPSETLSLSCTVSGVSISDNSYYWGWIRQPPGKGLEWIGTISYSGNTYYNPSLKSRVSISGDTSKHQLSLKVSSVTAADTAVYYCARQRIVSGFVEWLSKFDYWGQGTLVTVSS VL: QSVLTQPPSVSGAPGQRVTISCTGSSSNIGAGFDVHWYQQLPGTAPKLLIYDNNNRPSGVPDRFSGSKSGTSASLAITGLQAEDEADYYCQSYDTSLSGPVVFGGGTKLTVL	< 0.1 µg/mL
MR201 (antibody, V domains shown) VH: QLQLQESGPGLVKPSETLFLSCAVSGGSIAGSTHYWGWIRQPPGKGLEWIGSISESGSTYHNPSLKSRVTISVDTSKNYFSLNLSSVTAADTAVYYCARIVGQSGTFIYYYYAMDVWGTGTLVTVSS VL: DIQLTQSPSFLSASVGDRVTITCRASQGISSYLAWYQQKPGKAPKLLIYAASTLQRGVPSRFSGSGSGTEFTLTISSLQPEDSATYYCQQLNSYLALIFGGGT	> 1000 µg/mL
MR65 (antibody, V domains shown) VH: EVQLLESGGGLVQPGGSLRLSCAASGFTFSSYAMSWVRQAPGQGLEWVSGISATGGNTYYPDSVKGRFTISRDNSKNTLYLQMNSLRAEDTAVYYCARPLQFLTWFDPWGQGTLVTVSS VL: EIVLTQSPATLSLSPGERATLSCRASQSVNNFLAWYQQKPGQPPRLLIYDATNRATGIPARFSGSGSGTDFTLTISSLEPEDFAVYHCQHRSNWPSITFGQGTRLEIK	> 1000 µg/mL
